Known MIC99 of a selection of molecules
System: Mycobacterium kansasii
Experiment: Antimycobacterial activity against Mycobacterium kansasii 6509/96 after 21 days
Format: functional
Details: 6509/96, 504 h
Report only the number, with the unit µM understood.

Examples with their reported MIC99 follow.
O=[N+]([O-])c1cc(CSc2nnc(-c3ccc(Br)cc3)n2Cc2ccccc2)cc([N+](=O)[O-])c1 :: 4
O=[N+]([O-])c1cc(CSc2nnc(-c3ccccc3)n2-c2ccc(Cl)c(Cl)c2)cc([N+](=O)[O-])c1 :: 2
CO[C@H]1/C=C/O[C@@]2(C)Oc3c(C)c(O)c4c(O)c(c(/C=N/N5CCN(C)CC5)c(O)c4c3C2=O)NC(=O)/C(C)=C\C=C\[C@H](C)[C@H](O)[C@@H](C)[C@@H](O)[C@@H](C)[C@H](OC(C)=O)[C@@H]1C :: 0.25
Cn1c(SCc2cc([N+](=O)[O-])cc([N+](=O)[O-])c2)nnc1-c1ccccc1 :: 16
CCCCCCc1nnc(SCc2cc([N+](=O)[O-])cc([N+](=O)[O-])c2)n1Cc1ccccc1 :: 4
O=[N+]([O-])c1cc(CSc2nnc(-c3ccccc3)n2Cc2ccc(Br)cc2)cc([N+](=O)[O-])c1 :: 4
O=C(NNC(=S)NCc1ccc(Cl)cc1Cl)c1cc([N+](=O)[O-])cc([N+](=O)[O-])c1 :: 16
CSc1nnc(-c2cc([N+](=O)[O-])cc([N+](=O)[O-])c2)n1Cc1ccccc1 :: 8

Problem: Query MIC99 for CCCCCCCCSc1nnc(-c2cc([N+](=O)[O-])cc([N+](=O)[O-])c2)n1Cc1ccccc1
Result: 0.125

Problem: Give me measured MIC99, please, for this molecule: CCCSc1nnc(-c2cc([N+](=O)[O-])cc([N+](=O)[O-])c2)n1Cc1ccccc1
Result: 0.5

Problem: Please look at this molecule and report its MIC99: Cn1c(SCc2ccc(Cl)c(Cl)c2)nnc1-c1cc([N+](=O)[O-])cc([N+](=O)[O-])c1
Result: 0.125

Problem: Identify measured MIC99 corresponding to O=[N+]([O-])c1cc(CSc2nnc(C3CCCCC3)n2Cc2ccccc2)cc([N+](=O)[O-])c1
Result: 4

Problem: Answer with the recorded MIC99 for the molecule listed here: CCCCCCn1c(SCc2ccccc2)nnc1-c1cc([N+](=O)[O-])cc([N+](=O)[O-])c1
Result: 1

Problem: Identify measured MIC99 associated with O=[N+]([O-])c1cc(CSc2nnc(-c3ccccc3)n2-c2ccccc2)cc([N+](=O)[O-])c1
Result: 8

Problem: Return MIC99 (reported value) for this molecule: CCCCCCCCCCCCn1c(SCc2cc([N+](=O)[O-])cc([N+](=O)[O-])c2)nnc1-c1ccccc1
Result: 4

Problem: Let me know recorded MIC99 for O=[N+]([O-])c1cc(-c2nnc(SCc3ccccc3)n2Cc2ccc(Cl)cc2Cl)cc([N+](=O)[O-])c1 , thanks.
Result: 4

Problem: Determine from records and report MIC99 for CCn1c(SCc2cc([N+](=O)[O-])cc([N+](=O)[O-])c2)nnc1-c1ccccc1
Result: 4

Problem: Check the records and state MIC99 for O=[N+]([O-])c1cc(CSc2nnc(-c3ccc(Cl)c(Cl)c3)n2Cc2ccccc2)cc([N+](=O)[O-])c1
Result: 4

Problem: Identify measured MIC99 associated with COc1ccc(CSc2nnc(-c3cc([N+](=O)[O-])cc([N+](=O)[O-])c3)n2C)cc1
Result: 2

* * *

Tested on: Staphylococcus aureus
Assay: Antibacterial activity against methicillin-resistant Staphylococcus aureus subsp. aureus ATCC 43300 CCM 4750 at highest concentration measured after 24 to 48 hrs by alamar blue dye based broth microdilution assay
Format: functional, organism-based
Calls of active or inactive are those of the source. The rule behind the calls is not given here.
VALUE_TYPE: Activity

O=[N+]([O-])c1cc(CSc2nnc(-c3ccc(O)cc3)n2Cc2ccccc2)cc([N+](=O)[O-])c1 :: inactive
O=[N+]([O-])c1cc(-c2nnc(SCc3ccc(Cl)c(Cl)c3)n2Cc2ccccc2)cc([N+](=O)[O-])c1 :: inactive
CCCCCCCCSc1nnc(-c2cc([N+](=O)[O-])cc([N+](=O)[O-])c2)n1Cc1ccccc1 :: inactive
CCn1c(SCc2ccccc2)nnc1-c1cc([N+](=O)[O-])cc([N+](=O)[O-])c1 :: inactive
Cn1c(SCc2ccc(Cl)c(Cl)c2)nnc1-c1cc([N+](=O)[O-])cc([N+](=O)[O-])c1 :: inactive
O=[N+]([O-])c1cc(CSc2nnc(-c3ccc(Cl)cc3)n2Cc2ccccc2)cc(C(F)(F)F)c1 :: inactive
O=[N+]([O-])c1cc(CSc2nnc(-c3ccc(Br)cc3)n2Cc2ccccc2)cc([N+](=O)[O-])c1 :: inactive

Now look at this entry.
Problem: Output Activity of O=[N+]([O-])c1cc(-c2nnc(SCc3ccc(Br)cc3)n2Cc2ccccc2)cc([N+](=O)[O-])c1
Result: inactive

* * *

Experiment: Selectivity index, ratio of IC50 for human HepG2 cells to MIC>99 for antimycobacterial activity against Mycobacterium kansasii 6509/96 after 21 days
Format: toxicity
Conditions: read-out: Selectivity Index
VALUE_TYPE: selectivity ratio at 504 h

Problem: Determine from records and report selectivity ratio at 504 h for O=[N+]([O-])c1cc(-c2nnc(SCc3ccccc3)n2Cc2ccccc2)cc(C(F)(F)F)c1
Result: > 100

* * *

Measured log10 of MIC99 by item
System: Mycobacterium kansasii
Assay: Antimycobacterial activity against Mycobacterium kansasii CNCTC My 235/80 after 14 days
Type: functional
Conditions: CNCTC My 235/80, 336 h
Transform log10 | Measure MIC99 | Unit µM

Answered examples (6):
CCCCCCc1nnc(SCc2cc([N+](=O)[O-])cc([N+](=O)[O-])c2)n1Cc1ccccc1 :: 0.30
O=[N+]([O-])c1cc(CSc2nnc(C3CCCCC3)n2Cc2ccccc2)cc(C(F)(F)F)c1 :: 1.20
O=[N+]([O-])c1cc(CSc2nnc(-c3ccccc3)n2Cc2ccccc2)cc([N+](=O)[O-])c1 :: 0.60
O=[N+]([O-])c1cc(-c2nnc(SCc3ccc(Cl)c(Cl)c3)n2Cc2ccccc2)cc([N+](=O)[O-])c1 :: -0.60
O=[N+]([O-])c1cc(CSc2nnc(-c3ccc(Cl)c(Cl)c3)n2Cc2ccccc2)cc([N+](=O)[O-])c1 :: 0.30
O=[N+]([O-])c1cc(-c2nnc(SCc3ccccc3)n2Cc2ccccc2)cc([N+](=O)[O-])c1 :: -1.52

Problem: Determine from records and report log10 of MIC99 for O=[N+]([O-])c1cc(Cn2c(SCc3ccccc3)nnc2-c2ccccc2)cc([N+](=O)[O-])c1
Result: 0.90

Problem: Please look at this molecule and report its log10 of MIC99: CCCSc1nnc(-c2cc([N+](=O)[O-])cc([N+](=O)[O-])c2)n1Cc1ccccc1
Result: -0.60

Problem: Give the reported log10 of MIC99 for this molecule. CO[C@H]1/C=C/O[C@@]2(C)Oc3c(C)c(O)c4c(O)c(c(/C=N/N5CCN(C)CC5)c(O)c4c3C2=O)NC(=O)/C(C)=C\C=C\[C@H](C)[C@H](O)[C@@H](C)[C@@H](O)[C@@H](C)[C@H](OC(C)=O)[C@@H]1C [RIFAMPIN]
Result: -0.60

* * *

Assay: Cytotoxicity against human HepG2 cells assessed as cell viability at 30 uM after 48 hrs by CellTiter 96 aqueous one solution assay relative to control
Type: cell-based
Conditions: read-out: Activity
VALUE_TYPE: viability at 48 h, 30 µM (%)
The response must be a number in % with no trailing unit.

Observe how each entry below is paired with its result.
CCCCCCCCSc1nnc(-c2cc([N+](=O)[O-])cc([N+](=O)[O-])c2)n1Cc1ccccc1 :: 99
O=[N+]([O-])c1cc(CSc2nnc(-c3ccc(Br)cc3)n2Cc2ccccc2)cc([N+](=O)[O-])c1 :: 173
O=[N+]([O-])c1cc(-c2nnc(SCc3ccccc3)n2Cc2ccccc2)cc([N+](=O)[O-])c1 :: 106

Problem: Please list viability at 48 h, 30 µM recorded for the compound O=[N+]([O-])c1cc(-c2nnc(SCc3ccc(Cl)c(Cl)c3)n2Cc2ccccc2)cc([N+](=O)[O-])c1
Result: 103

* * *

Tested on: Trichophyton interdigitale
Assay: Antifungal activity against Trichophyton interdigitale ATCC 9533 CCM 8377 at highest concentration measured after 72 to 120 hrs by alamar blue dye based broth microdilution assay
Assay type: functional
Active and inactive are the calls of the source. No cut-off for these calls is given here.
VALUE_TYPE: Activity

Past entries and their recorded results:
O=[N+]([O-])c1cc(CSc2nnc(-c3ccccc3)n2-c2ccc(Cl)c(Cl)c2)cc([N+](=O)[O-])c1 :: inactive
O=[N+]([O-])c1cc(-c2nnc(SCc3ccc(Cl)cc3)n2Cc2ccccc2)cc(C(F)(F)F)c1 :: inactive
COc1ccc(CSc2nnc(-c3cc([N+](=O)[O-])cc([N+](=O)[O-])c3)n2C)cc1 :: inactive
O=[N+]([O-])c1cc(-c2nnc(SCc3ccccc3)n2Cc2ccccc2)cc(C(F)(F)F)c1 :: inactive
O=[N+]([O-])c1cc(CSc2nnc(-c3ccc(Cl)cc3)n2Cc2ccccc2)cc([N+](=O)[O-])c1 :: inactive
O=[N+]([O-])c1cc(Cn2c(SCc3ccccc3)nnc2-c2ccccc2)cc([N+](=O)[O-])c1 :: inactive
O=[N+]([O-])c1cc(CSc2nnc(-c3ccc(Cl)cc3)n2Cc2ccccc2)cc(C(F)(F)F)c1 :: inactive
CCn1c(SCc2ccccc2)nnc1-c1cc([N+](=O)[O-])cc([N+](=O)[O-])c1 :: inactive
O=[N+]([O-])c1cc(-c2nnc(SCc3ccc(Cl)c(Cl)c3)n2Cc2ccccc2)cc([N+](=O)[O-])c1 :: inactive
CCCCCCCCCCCc1nnc(SCc2cc([N+](=O)[O-])cc([N+](=O)[O-])c2)n1Cc1ccccc1 :: inactive

Problem: Query Activity for Cn1c(SCc2ccc(Cl)c(Cl)c2)nnc1-c1cc([N+](=O)[O-])cc([N+](=O)[O-])c1
Result: inactive

Problem: State its Activity: CCCCCCCCCCCCn1c(SCc2ccccc2)nnc1-c1cc([N+](=O)[O-])cc([N+](=O)[O-])c1
Result: inactive

Problem: Give the measured Activity for O=[N+]([O-])c1cc(-c2nnc(SCc3ccccc3)n2Cc2ccc(Cl)cc2Cl)cc([N+](=O)[O-])c1
Result: inactive
